These data points were gathered from PubChem BioAssay (NCI).

experiment: NCI Yeast Anticancer Drug Screen. Data for the rad50 strain (AID 155);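 note: 0% = growth of vehicle-only cultures of the same strain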; details: S. cerevisiae rad50 strain growth inhibition; at 5.0 µM (retest, dose inferred, filed as 0.5); active compounds read high
The panel holds about 79,000 compounds, 15% with a hit somewhere; the sample as a whole holds those more often.
measured_quantity: growth inhibition (%)
Report the figure in % without appending any unit label.

# count of solved cases: 2
compound=CCOC(=O)c1c(N)c(=O)n2c3c(cccc13)CC2 quantity_unit=% result_number=0
compound="CC(=O)CC1(O)C(=O)Nc2ccc(Br)cc21 (stereo not drawn)" quantity_unit=% result_number=1

Can you share its growth inhibition? I mean this compound: CCCCCNc1ccc2c(cc1=O)C(NC(C)=O)CCc1cc(OC)c(OC)c(OC)c1-2 (stereo not drawn)
16
